- experiment: NOD1 signaling inhibitors, primary screen, cell-based, luminescence, uHTS (AID 1578);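 also: HEK-293T reporter cells stimulated with the NOD1 agonist gamma-tri-DAP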
- assayConditions: NOD1-driven NF-kB luciferase reporter cells, at 4 µM
The campaign covered roughly 290,000 compounds. About 3,000 (1%) were called active. Rule as the data show it: active = inhibition mostly above about 36% (no sharp cut-off); inactive = mostly below about 34%. Many of the other results were omitted from the sample, so actives are more common in it than they were.
Classes used: active, inactive

INSERT INTO results (compound, categorylabel) VALUES
  ('Cc1nnnn1/C(=C\c1ccccc1)C(=O)OCC(=O)NC(C)(C)C', 'active'),
  ('O=C(O)c1[nH]c2ccccc2c1C(c1c(F)cccc1Cl)c1c(C(=O)O)[nH]c2ccccc12', 'inactive'),
  ('CCOc1ccccc1NC(=S)NC(=O)C1CC1', 'active'),
  ('c1ccc(OCc2nc3ccccc3s2)cc1', 'inactive'),
  ('Cc1ccc(S(=O)(=O)N(CC(=O)Nc2cccnc2)c2cccc([N+](=O)[O-])c2)cc1', 'inactive'),
  ('CCCCC(c1nnnn1CC1CCCO1)N1CCN(c2ccccc2)CC1 (stereo not drawn)', 'inactive'),
  ('COCCn1c(=NC(=O)/C=C/c2ccccc2Cl)sc2cc(NC(C)=O)ccc21', 'active'),
  ('Cc1cccc(C)c1NC(=O)COn1nnc2ccc(C(F)(F)F)cc21', 'inactive'),
  ('CC(=O)Nc1ccc(NC(=O)COC(=O)/C(=C/c2ccccc2)n2nnnc2C)cc1', 'inactive'),
  ('Cc1ccc(NC(=O)c2ccoc2C)cc1C', 'active'),
  ('CCOc1ccccc1NC(=S)NC(=O)C1CCCCC1', 'inactive'),
  ('COc1ccccc1NC(=S)NC(=O)C1CC1', 'inactive'),
  ('Cc1ccc2c(c1)sc1ncc(NC(=O)c3ccc(F)cc3)c(=O)n12', 'inactive'),
  ('O=C(Nc1ccccc1NC(=O)c1ccc(F)cc1)c1ccc(F)cc1', 'inactive'),
  ('Cc1cc(C(=O)N/N=C/c2c(C)nn(-c3ccccc3)c2Cl)n[nH]1', 'inactive'),
  ('Cc1ccc(NC2CCCN(C(=O)c3cccc(-c4ncc[nH]4)c3)C2)cc1C (stereo not drawn)', 'inactive'),
  ('Cc1cc(C(=O)CCl)c(C)n1-c1c(C)n(C)n(-c2ccccc2)c1=O', 'active'),
  ('Cc1cccc(Nc2ccc3nonc3c2[N+](=O)[O-])c1C', 'inactive'),
  ('COc1cccc(NC(=O)c2ccc(NC(=O)C(C)(C)C)cc2)c1', 'inactive'),
  ('Cc1oc(-c2ccccc2Cl)nc1CS(=O)CC(=O)NCc1cccs1 (stereo not drawn)', 'inactive'),
  ('O=C(CN1CC(c2ccccc2)CC1=O)Nc1ccc2c(c1)OCO2 (stereo not drawn)', 'inactive'),
  ('COC(=O)Cc1[nH]n(-c2nc3ccccc3s2)c(=O)c1C(C)=O', 'inactive'),
  ('COc1cc(/C=C(\C#N)C(=O)Nc2ccccc2)ccc1OCCN1CCOCC1', 'inactive'),
  ('O=C1NN(c2ccccc2)C(=O)/C1=C/c1ccc(-c2ccc(C(=O)O)cc2)o1', 'inactive'),
  ('COc1cc(C(=O)NCc2ccc(-c3nc4ccccc4s3)cc2)cc(OC)c1OC', 'inactive'),
  ('COc1ccc(-n2c(C)cc(C(=O)CCl)c2C)cc1', 'inactive'),
  ('COCCn1c(=NC(=O)/C=C/c2ccccc2)sc2cc(NC(C)=O)ccc21', 'inactive'),
  ('Cc1cc(C(=O)CCl)c(C)n1-c1ccon1', 'inactive'),
  ('COc1ccc(/C=N/Nc2ccccc2C(=O)O)cc1Cn1cc([N+](=O)[O-])cn1', 'inactive'),
  ('CC(=O)C1=C(c2ccc(Br)cc2)C(=O)c2ccccc2C1=O', 'active'),
  ('CCOC(=O)c1sc(NC(=O)C(C)Sc2nnc(N)s2)nc1C (stereo not drawn)', 'inactive'),
  ('COc1ccc2ccccc2c1/C=N\NC(=O)c1ccc(C)s1', 'inactive'),
  ('O=C(COn1nnc2ccc(C(F)(F)F)cc21)Nc1c(Cl)cccc1Cl', 'inactive'),
  ('COc1cccc2c1Oc1ncccc1N(C(=O)CCC(=O)NCc1ccccc1)C2', 'inactive'),
  ('CC(C)c1nc2sc3c(NCc4ccco4)ncnc3c2c2c1COC(C)(C)C2', 'active'),
  ('Cc1cc2c(c(=O)n1Cc1cccnc1)C(c1cccs1)C(C#N)=C(N)O2 (stereo not drawn)', 'inactive'),
  ('N#Cc1cc(NC(=O)c2ccc(F)cc2)c(=O)n2c1[nH]c1ccccc12', 'active'),
  ('COc1ccc(CCNC(=O)C2CCN(S(=O)(=O)c3ccc4c(c3)oc(=O)n4C)CC2)cc1OC', 'inactive');

---

Each item that follows carries a reported inhibition.
- experiment: NOD1 signaling inhibitors, primary screen, cell-based, luminescence, uHTS (AID 1578);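 also: HEK-293T reporter cells stimulated with the NOD1 agonist gamma-tri-DAP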
- assayConditions: NOD1-driven NF-kB luciferase reporter cells, at 4 µM, hits give high values
About 3,000 (1%) of roughly 290,000 compounds were called active. The list comes from a sample in which actives are over-represented; it also holds close analogues and randomly drawn compounds.
quantityKind: inhibition (%)

INSERT INTO measurements (compound, recordedmeasurement) VALUES
  ('CCN(CC)c1nc(N)nc(N(c2ccccc2)c2ccccc2)n1', 13.6),
  ('COC(=O)c1nn(-c2ccc3c(c2)CCN3C(C)=O)cc1O', 78.5),
  ('CCOC(=O)CSc1nnc(Cn2c(=O)sc3ccccc32)n1-c1ccccc1C', 5.4),
  ('COc1ccc(O)c(/C=N/NC(=S)Nc2cccc(S(=O)(=O)N(C)C)c2)c1', -37),
  ('CN(C)S(=O)(=O)c1cccc(NC(=S)N/N=C/c2ccc(O)c(O)c2O)c1', 56.3),
  ('COC(=O)c1nn(-c2ccc3c(c2)OCO3)cc1O', -11.8),
  ('COc1ccc(/C=C/C(=O)Nc2ccc3nc4n(c(=O)c3c2)CCCC4)cc1OC', -31.1),
  ('Nc1nc(Cl)nc(N(c2ccccc2)c2ccccc2)n1', -8.3),
  ('O=C(CN1CCCCC1)NNC(=O)c1cccc(Br)c1', 5.1),
  ('c1ccc(CNc2ncnc3ccccc23)cc1', -16.1),
  ('CC(C(=O)NC1CCCC1)N(C(=O)Cn1nnc(-c2ccc(F)cc2)n1)c1ccccc1F (stereo unspecified)', 82.7),
  ('Cc1ccc(C(=O)CSc2nc(C)cc(=O)[nH]2)cc1', -3.4),
  ('CC(C)n1c(CN(C)c2ccccc2)nc2ccccc21', -18.1),
  ('O=C(CSc1cccc2cccnc12)OCC(=O)c1ccc(Br)cc1', 3.3),
  ('c1ccc(CCNc2ncnc3ccccc23)cc1', 71.7),
  ('O=C(CSc1cccc2cccnc12)OCC(=O)c1ccccc1', -30.2);

---

- experiment: NOD1 signaling inhibitors, primary screen, cell-based, luminescence, uHTS (AID 1578);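 also: HEK-293T reporter cells stimulated with the NOD1 agonist gamma-tri-DAP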
- assayConditions: NOD1-driven NF-kB luciferase reporter cells, at 4 µM, hits give high values
Screen size: about 290,000 compounds; about 3,000 (1%) were called active. Only a selection was taken, and actives are over-represented in it overall.
Think of 30% as a floor: if inhibition stands on it or above, it is Met; beneath it, Not met.

INSERT INTO assay_data (molecule, categorylabel) VALUES
  ('CCN(CC)S(=O)(=O)c1ccc(N/N=C(\C)c2ccncc2)c([N+](=O)[O-])c1', 'Met'),
  ('Cn1c(=O)c2c(nc(N/N=C/c3ccc(OC(=O)c4ccco4)cc3)n2Cc2ccc(F)cc2)n(C)c1=O', 'Met'),
  ('Clc1ccc(-c2nnc(C3CC3)o2)cc1', 'Not met'),
  ('Cn1c(=O)c2c(nc(N/N=C/c3ccc(OC(=O)c4ccco4)cc3)n2Cc2ccccc2)n(C)c1=O', 'Not met'),
  ('COc1ccc(CCCC(=O)Nc2ccc(F)cc2)cc1', 'Not met');

---

- experiment: NOD1 signaling inhibitors, primary screen, cell-based, luminescence, uHTS (AID 1578);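 also: HEK-293T reporter cells stimulated with the NOD1 agonist gamma-tri-DAP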
- assayConditions: NOD1-driven NF-kB luciferase reporter cells, at 4 µM, hits give high values
The whole screen tested about 290,000 compounds, of which about 3,000 (1%) were called active. This excerpt belongs to a sample that is enriched for actives.
quantityKind: inhibition (%)

INSERT INTO results (molecule, recordedmeasurement) VALUES
  ('COc1ccc(C2C(C#N)=C(N)N(c3cccnc3)C3=C2C(=O)CC(C)(C)C3)cc1OC (centres undefined)', 63.5),
  ('O=C(NCCCn1ccnc1)/C(=C\c1cccnc1)NC(=O)c1ccco1', -5.2),
  ('COc1ccc(CNCc2ccc3c(c2)OCO3)c(OC)c1OC', -18),
  ('CC(=O)Nc1cccc(Cl)c1C(=O)O', -21.4);

---

- experiment: NOD1 signaling inhibitors, primary screen, cell-based, luminescence, uHTS (AID 1578);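 also: HEK-293T reporter cells stimulated with the NOD1 agonist gamma-tri-DAP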
- assayConditions: NOD1-driven NF-kB luciferase reporter cells, at 4 µM
Out of some 290,000 compounds screened, about 3,000 (1%) were called active. Rule as the data show it: active = inhibition mostly above about 36% (no sharp cut-off); inactive = mostly below about 34%. This excerpt belongs to a sample that is enriched for actives.
Possible outcomes: active, inactive

INSERT INTO measurements (compound, categorylabel) VALUES
  ('Cc1cccc(OC(C)C(=O)N2CCCN(C)CC2)c1C (stereo not given)', 'inactive'),
  ('C=CCOc1ccc(C(=O)/C=C2/C(=O)Nc3ccccc32)cc1', 'inactive'),
  ('C=CCOc1cccc(C(=O)/C=C2/C(=O)Nc3ccccc32)c1', 'inactive'),
  ('C=CCOc1ccccc1C(=O)/C=C1/C(=O)Nc2ccccc21', 'active'),
  ('CCCCn1c(-c2csc3ccccc23)n[nH]c1=S', 'inactive');
